Test system: A498 renal
Test: NCI-60 one-dose screen, 48 h (100 = growth as untreated, 0 = no growth, -100 = all killed)
Conditions: 10 µM unless noted
The panel holds about 83,000 compounds, 20% with a hit somewhere; the sample as a whole holds those more often.
Returns one of Y or N; Y when growth is >= 70%.

* COc1ccc(C(=O)/C=C/c2ccc(Cl)cc2)cc1S(N)(=O)=O | Y
* C/C(=C(\c1ccc(OCCCN(C)C)cc1)c1ccc(OC(=O)Cc2ccccc2)cc1)c1ccc(Cl)cc1 | Y
* CCN1CCN(CCOc2ccc(CNc3ccc4nc(CCC5CCCCC5)[nH]c4c3)cc2)CC1 | N
* C=C(c1ccc(C(=O)O)c(F)c1)c1cc2c(cc1C)C(C)(C)C=CC2(C)C | Y
* C=C(C)[C@@H]1CC[C@]2(COC(=O)c3cccnc3)CC[C@]3(C)[C@H](CC[C@@H]4[C@@]5(C)CCCN(C(=O)c6cccnc6)C(C)(C)[C@@H]5CC[C@]43C)[C@@H]12 | N
* C#Cc1cccc(Nc2ncnc3ccc(-c4cnc(Cl)c(NS(C)(=O)=O)c4)cc23)c1 | N
* Brc1ccc(-c2nn(-c3ccccc3)cc2-c2nn[nH]n2)s1 | N
* CC1=C(C(=O)c2ccccc2)C(c2ccc3c(c2)OCO3)NC(=S)N1 (centres undefined) | N
* COc1ccccc1-c1nc2ccc3[nH]ncc3c2c2c1CCCC2 | N
